# TEST_METHOD_NOTES: Metabolic Stability, Human
# Format: in vitro ADME
Exercise: for every item that follows, state its recorded CLint scaled.
A number alone suffices; assume mL/min/kg.

# CLint scaled lookup, item CN(c1ccccc1)c1nc(N)nc2[nH]c3cccc(Cl)c3c12 [AGN11]
45.6

# CLint scaled lookup, item Cc1ccc(N(C)c2nc(N)nc3[nH]c4cccc(Cl)c4c23)cc1 [AGN5]
44.7

---

# EXPERIMENTAL_TARGET: LARK2 (Homo sapiens, UniProt Q5S007)
# Sequence (Q5S007 whole entry): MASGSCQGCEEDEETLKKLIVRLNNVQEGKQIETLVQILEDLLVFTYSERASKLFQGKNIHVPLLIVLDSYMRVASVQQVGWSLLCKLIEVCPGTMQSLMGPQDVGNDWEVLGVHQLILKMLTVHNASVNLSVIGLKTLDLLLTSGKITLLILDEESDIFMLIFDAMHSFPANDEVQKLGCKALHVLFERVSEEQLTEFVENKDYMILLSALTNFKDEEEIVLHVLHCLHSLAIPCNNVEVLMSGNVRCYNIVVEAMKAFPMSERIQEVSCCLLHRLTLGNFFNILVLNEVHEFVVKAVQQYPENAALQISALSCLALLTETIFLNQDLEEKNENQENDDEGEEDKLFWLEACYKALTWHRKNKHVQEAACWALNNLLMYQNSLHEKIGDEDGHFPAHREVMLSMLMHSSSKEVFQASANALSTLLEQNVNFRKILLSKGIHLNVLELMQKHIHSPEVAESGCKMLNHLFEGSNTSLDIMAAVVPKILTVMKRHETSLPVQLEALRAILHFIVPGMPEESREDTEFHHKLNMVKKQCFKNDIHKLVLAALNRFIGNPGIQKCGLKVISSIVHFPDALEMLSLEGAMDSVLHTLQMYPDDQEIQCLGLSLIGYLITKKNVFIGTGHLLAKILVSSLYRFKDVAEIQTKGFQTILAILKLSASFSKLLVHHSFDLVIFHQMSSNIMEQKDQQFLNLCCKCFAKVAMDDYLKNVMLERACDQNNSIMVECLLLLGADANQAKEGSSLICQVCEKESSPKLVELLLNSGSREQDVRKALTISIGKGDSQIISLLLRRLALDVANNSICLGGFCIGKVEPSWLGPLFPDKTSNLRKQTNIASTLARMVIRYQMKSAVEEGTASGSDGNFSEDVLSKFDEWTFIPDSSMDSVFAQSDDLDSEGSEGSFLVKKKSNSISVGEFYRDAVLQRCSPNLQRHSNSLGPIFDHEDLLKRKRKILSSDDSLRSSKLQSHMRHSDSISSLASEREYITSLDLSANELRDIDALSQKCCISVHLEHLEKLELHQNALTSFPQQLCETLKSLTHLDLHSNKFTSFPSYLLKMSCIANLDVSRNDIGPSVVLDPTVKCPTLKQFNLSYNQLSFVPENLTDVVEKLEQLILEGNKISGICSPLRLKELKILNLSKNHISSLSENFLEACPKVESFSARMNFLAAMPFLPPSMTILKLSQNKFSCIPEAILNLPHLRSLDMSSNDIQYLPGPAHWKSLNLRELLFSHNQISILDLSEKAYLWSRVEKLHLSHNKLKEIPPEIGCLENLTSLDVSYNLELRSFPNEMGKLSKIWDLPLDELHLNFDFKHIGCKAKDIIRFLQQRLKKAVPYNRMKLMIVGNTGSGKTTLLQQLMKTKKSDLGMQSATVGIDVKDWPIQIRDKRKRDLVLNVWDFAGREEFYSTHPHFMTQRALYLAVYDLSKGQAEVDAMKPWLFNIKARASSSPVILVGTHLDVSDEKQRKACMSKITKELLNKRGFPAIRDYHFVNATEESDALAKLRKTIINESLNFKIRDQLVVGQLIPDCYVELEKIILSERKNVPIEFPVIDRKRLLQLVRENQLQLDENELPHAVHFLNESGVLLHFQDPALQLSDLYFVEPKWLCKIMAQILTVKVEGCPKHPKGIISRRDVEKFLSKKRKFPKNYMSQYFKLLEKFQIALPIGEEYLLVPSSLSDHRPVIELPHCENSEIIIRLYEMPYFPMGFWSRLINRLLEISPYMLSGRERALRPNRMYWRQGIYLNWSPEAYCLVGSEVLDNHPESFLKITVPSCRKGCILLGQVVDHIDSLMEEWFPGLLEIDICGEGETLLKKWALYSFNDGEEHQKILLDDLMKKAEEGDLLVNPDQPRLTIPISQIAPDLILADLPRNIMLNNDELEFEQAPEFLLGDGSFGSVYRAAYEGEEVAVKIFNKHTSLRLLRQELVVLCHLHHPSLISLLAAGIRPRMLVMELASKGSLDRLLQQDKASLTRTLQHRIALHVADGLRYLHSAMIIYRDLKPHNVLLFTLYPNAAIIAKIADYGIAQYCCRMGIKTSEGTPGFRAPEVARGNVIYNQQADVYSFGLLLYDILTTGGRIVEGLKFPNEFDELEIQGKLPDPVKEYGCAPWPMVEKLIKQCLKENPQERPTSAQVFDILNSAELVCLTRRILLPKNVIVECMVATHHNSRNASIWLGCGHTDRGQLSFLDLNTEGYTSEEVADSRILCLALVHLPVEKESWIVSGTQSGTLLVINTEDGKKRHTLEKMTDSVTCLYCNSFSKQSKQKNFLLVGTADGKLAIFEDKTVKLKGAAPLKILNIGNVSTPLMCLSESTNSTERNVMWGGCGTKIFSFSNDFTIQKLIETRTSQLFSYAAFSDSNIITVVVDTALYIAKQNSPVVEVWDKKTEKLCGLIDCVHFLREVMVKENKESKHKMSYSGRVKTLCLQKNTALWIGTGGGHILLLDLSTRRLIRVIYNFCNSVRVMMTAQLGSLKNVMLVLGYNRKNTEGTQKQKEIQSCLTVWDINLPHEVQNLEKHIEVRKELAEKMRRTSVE
# TEST_METHOD_NOTES: Kinase inhibition, LARK2; also: ATP Km app 70 µM
# Assay type: biochemical
MEASUREMENT_NAME: pIC50
In textbook form, pIC50 equals minus log to base ten of the concentration in mol/L.

# pIC50 lookup, item `CN(c1ccccc1)c1nc(N)nc2[nH]c3cccc(Cl)c3c12`
8.15

# pIC50 lookup, item `Cc1ccc(N(C)c2nc(N)nc3[nH]c4cccc(Cl)c4c23)cc1`
7.70
